These entries and their values trace back to ChEMBL document CHEMBL3507680.

Experiment: Human HepG2 cell viability assay in 384 well format
Type: toxicity, cell-based
Parameters: dose 125 nL, time 70.5 hour; concentration not given beside the values
Conditions: HepG2 cells, read-out: Inhibition
Endpoint Label: cytotoxicity at 70.5 h (%)
Just the number in %, nothing appended.

Example compounds with recorded cytotoxicity at 70.5 h:
Cc1cnn(CCNCC(=O)Nc2ccc(Cl)cn2)c1 ... -0.0591
Cc1ccn(-c2cncc(C(N)=O)c2)n1 ... -14.4
Cc1ccc(-c2nc(C(=O)N(C)CC(=O)N3CCCC3)cs2)c(C)c1 ... -4.38

INPUT: What value of cytotoxicity at 70.5 h has been reported for the following compound? CCN1C(=O)CCCC12CCCN(C(=O)c1sccc1C)C2 (centres undefined)
OUTPUT: -9.33

INPUT: What value of cytotoxicity at 70.5 h has been reported for the following compound? O=C(CCc1cc(Cl)no1)N1CCCCC1CCN1CCOCC1 (centres undefined)
OUTPUT: -2.5

INPUT: What value of cytotoxicity at 70.5 h has been reported for the following compound? "CCN1C[C@@H]2[C@@H](OC)CCN(S(=O)(=O)c3ccccc3F)[C@@H]2C1"
OUTPUT: -9.34

INPUT: What value of cytotoxicity at 70.5 h has been reported for the following compound? "Cc1ncsc1-c1nnc(C2CCN(CC3CCCCC3)CC2)o1"
OUTPUT: -8.62

INPUT: What value of cytotoxicity at 70.5 h has been reported for the following compound? "CN1CCN(C(=O)[C@@H]2CN(C)C[C@]23COc2ccc(F)cc2C3=O)CC1"
OUTPUT: 28.4

INPUT: What value of cytotoxicity at 70.5 h has been reported for the following compound? "CCN(CC)c1ccc2ccc(C(=O)N(CCOC)CCOC)cn12"
OUTPUT: -0.14

* * *

Experiment: Human HepG2 cell viability assay in 384 well format
Type: toxicity, cell-based
Parameters: dose 125 nL, time 70.5 hour; concentration not given beside the values
Conditions: HepG2 cells, read-out: Inhibition
Endpoint Label: cytotoxicity at 70.5 h (%)
Just the number in %, nothing appended.

Example compounds with recorded cytotoxicity at 70.5 h:
COc1ccccc1-c1nc(C(=O)N2CCOCC2)n2ccncc12 ... -9.1
CCOc1ccc(N(C)Cc2nnc(C)o2)cc1 ... 19.3

INPUT: What value of cytotoxicity at 70.5 h has been reported for the following compound? "COCCN1C[C@H]2CC[C@@H]1CN(C(=O)CCc1n[nH]c(C)c1C)C2"
OUTPUT: 6.62

INPUT: What value of cytotoxicity at 70.5 h has been reported for the following compound? O=C(C[S+]([O-])Cc1cccc(F)c1)NC1CCCC1 (centres undefined)
OUTPUT: 0.67

INPUT: What value of cytotoxicity at 70.5 h has been reported for the following compound? "COCc1ncn2c1CN(C(=O)C1CC=CC1)CC2"
OUTPUT: -8.8

INPUT: What value of cytotoxicity at 70.5 h has been reported for the following compound? "CC(C)SCCn1ccc2[nH]c(=O)c(C#N)cc2c1=O"
OUTPUT: -8.8

INPUT: What value of cytotoxicity at 70.5 h has been reported for the following compound? "CN1CCOC[C@H]1c1nc(-c2cccc(F)c2)c[nH]1"
OUTPUT: 2.61

* * *

Experiment: Human HepG2 cell viability assay in 384 well format
Assay type: toxicity, cell-based
Set-up: dose 125 nL, time 70.5 hour; concentration not given beside the values
Conditions: HepG2 cells, read-out: Inhibition
Property: cytotoxicity at 70.5 h; scope: individual compounds
Just the number in %, nothing appended.

Example compounds with recorded cytotoxicity at 70.5 h:
CN1CCN(Cc2ccccc2Oc2cncc(C(N)=O)n2)CC1 ... -3.62
CNC(=O)N(C)CC1(c2ccc(Br)cc2)CC1 ... -3.73
CC(C)n1ccnc1C1CCCN(c2ncccc2C(N)=O)C1 (stereo not given) ... -0.947
CC(c1cccc(F)c1)N1CCN(Cc2nccn2C)CC1 (stereo not given) ... -9.9

Attention now shifts to the item below.
INPUT: What value of cytotoxicity at 70.5 h has been reported for the following compound? Cc1cc(C)n(CC2CCCN2C(=O)c2ccc(C(N)=O)cn2)n1 (stereo not given)
OUTPUT: -1.95

* * *

Experiment: Human HepG2 cell viability assay in 384 well format
Type: toxicity, cell-based
Design: dose 125 nL, time 70.5 hour; concentration not given beside the values
Conditions: HepG2 cells, read-out: Inhibition
Endpoint Label: cytotoxicity at 70.5 h (%)
Just the number in %, nothing appended.

Example molecules with recorded cytotoxicity at 70.5 h:
CCOC(C)c1nc(CN2CCC(C3OCCO3)CC2)cs1 (stereo not drawn) ... 9.96
Cc1ccnn1CCC(=O)N1CCCC[C@]2(C)NC(=O)CCC[C@H]12 ... -7.45

Attention now shifts to the item below.
INPUT: What value of cytotoxicity at 70.5 h has been reported for the following molecule? "COc1nc(N2CCNCC2)ncc1Br"
OUTPUT: -9.1

* * *

Experiment: Human HepG2 cell viability assay in 384 well format
Format: toxicity, cell-based
Parameters: dose 125 nL, time 70.5 hour; concentration not given beside the values
Conditions: HepG2 cells, read-out: Inhibition
Endpoint Label: cytotoxicity at 70.5 h (%)
Just the number in %, nothing appended.

Example compounds with recorded cytotoxicity at 70.5 h:
O=C(c1ccncc1)N1CC[C@@H]2[C@@H](CC1)OCCN2c1cccnc1 ... -7.36
Cc1ccc(C(C)NC(=O)CSCC(N)=O)cc1 (centres undefined) ... -0.981
Cc1cc(CC(=O)NCC(O)c2ccc(OC(F)F)cc2)n[nH]1 (centres undefined) ... -4.53

INPUT: What value of cytotoxicity at 70.5 h has been reported for the following compound? COC(=O)c1ccc(N2CCN(CCC#N)C(C)C2)cc1 (centres undefined)
OUTPUT: 11.4

INPUT: What value of cytotoxicity at 70.5 h has been reported for the following compound? CC(CNC(=O)c1c[nH]nn1)Oc1cccc(Br)c1 (centres undefined)
OUTPUT: -11.4

INPUT: What value of cytotoxicity at 70.5 h has been reported for the following compound? "O=C(N[C@H]1CCCC[C@@H]1O)c1cccc(-c2nc3ccccc3[nH]2)c1"
OUTPUT: -2.51

INPUT: What value of cytotoxicity at 70.5 h has been reported for the following compound? "CCCn1ncc(C(=O)N(C)Cc2cc(C3CC3)[nH]n2)c1C"
OUTPUT: 0.995

INPUT: What value of cytotoxicity at 70.5 h has been reported for the following compound? "COc1cccc2sc(N3CCN(C(=O)c4cc(C)on4)CC3)nc12"
OUTPUT: -2.51

INPUT: What value of cytotoxicity at 70.5 h has been reported for the following compound? "Cc1cc(C(=O)NC2(C#N)CCCC2)c(C)n1-c1cccnc1"
OUTPUT: -6.05

INPUT: What value of cytotoxicity at 70.5 h has been reported for the following compound? O=C(Cc1cccnc1)N1CCCC(n2cncn2)C1 (centres undefined)
OUTPUT: -1.4

INPUT: What value of cytotoxicity at 70.5 h has been reported for the following compound? "N#Cc1ccc(C(=O)N2CC[C@H]3[C@@H]2CCC(=O)N3c2cccnc2)cc1"
OUTPUT: -6.84

INPUT: What value of cytotoxicity at 70.5 h has been reported for the following compound? "COCCC(=O)N1CC2(CCN(Cc3ccccc3Cl)CC2)C1"
OUTPUT: 12.5

INPUT: What value of cytotoxicity at 70.5 h has been reported for the following compound? Nc1ccc(CC2COc3ccccc3C2)cn1 (centres undefined)
OUTPUT: -5.61

INPUT: What value of cytotoxicity at 70.5 h has been reported for the following compound? "CNC(=O)C(C)(C)CNC(=O)Nc1ccncc1C"
OUTPUT: -9.08

INPUT: What value of cytotoxicity at 70.5 h has been reported for the following compound? CC(c1cccc(S(N)(=O)=O)c1)N(C)CCOc1ccccc1 (centres undefined)
OUTPUT: -16.8

INPUT: What value of cytotoxicity at 70.5 h has been reported for the following compound? CC1(C)CC2(CCO1)NC(=O)c1cc(Br)ccc1-n1nnnc12 (centres undefined)
OUTPUT: 1.03

INPUT: What value of cytotoxicity at 70.5 h has been reported for the following compound? CC(NC(=O)Cn1cccn1)c1cccnc1 (centres undefined)
OUTPUT: -4.88

INPUT: What value of cytotoxicity at 70.5 h has been reported for the following compound? COc1ccc(OCC2CCCN(c3nc(CO)cs3)C2)cc1 (centres undefined)
OUTPUT: -9.63

* * *

Experiment: Human HepG2 cell viability assay in 384 well format
Type: toxicity, cell-based
Design: dose 125 nL, time 70.5 hour; concentration not given beside the values
Conditions: HepG2 cells, read-out: Inhibition
Property: cytotoxicity at 70.5 h; scope: individual compounds
Just the number in %, nothing appended.

Example compounds with recorded cytotoxicity at 70.5 h:
CCN(Cc1nonc1C)C(=O)c1cc(C(F)(F)F)nn1C ... -7.63
Cc1nnc2n1CCN(Cc1csc(-c3ccc(F)cc3)n1)C2 ... -12.1
CCOc1ncccc1NC(=O)c1cc(C)sc1C ... -11
O=C(CCN1C(=O)CCC1=O)Nc1ccc(Oc2ccc(Cl)cc2)nc1 ... -10.7
CCn1nccc1C(=O)N1CCCCC1CCc1ccc(O)cc1 (centres undefined) ... 11

INPUT: What value of cytotoxicity at 70.5 h has been reported for the following compound? "CN1CCN(C(=O)[C@H]2C[C@H]3[C@H](CCN3Cc3nccs3)O2)CC1"
OUTPUT: -10.8

INPUT: What value of cytotoxicity at 70.5 h has been reported for the following compound? "COc1ccc(OC)c(CN(Cc2ccco2)Cc2[nH]cnc2C)c1"
OUTPUT: -10.2

INPUT: What value of cytotoxicity at 70.5 h has been reported for the following compound? "CO[C@H]1[C@@H]2CC[C@H]1CN(c1nc(C)nc3sccc13)C2"
OUTPUT: 6.45
